Source of measurements: the supplement of paper PMC10567573

B1: VAMP4 (parent)
chain: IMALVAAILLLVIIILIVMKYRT

variants of: B1; test: protein stability index of a GFP-peptide fusion (GPS, HEK-293T) (PSI 1-6); higher = more stable; conditions: c terminus: native;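 note: lentivirally expressed fusions sorted by FACS into six bins by GFP to DsRed ratio, PSI derived from sequencing read proportions per bin multiplied by bin number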
Think of 3 as a floor: if protein stability index stands on it or above, it is y; beneath it, n.

The examples below pair each entry with its known result.
>  <SEQUENCE_CONTENT>
IMALVAAILGLVIIILIVMKYRT

>  <LABEL_VALUE>
n

$$$$
>  <SEQUENCE_CONTENT>
IMALVFAILLLVIIILIVMKYRT

>  <LABEL_VALUE>
y

$$$$
>  <SEQUENCE_CONTENT>
IMALVAAILLEVIIILIVMKYRT

>  <LABEL_VALUE>
n

$$$$
>  <SEQUENCE_CONTENT>
IMALVGAILLLVIIILIVMKYRT

>  <LABEL_VALUE>
y

$$$$
>  <SEQUENCE_CONTENT>
IMALVAAQLLLVIIILIVMKYRT

>  <LABEL_VALUE>
n

$$$$
>  <SEQUENCE_CONTENT>
IMALVAAILLLPIIILIVMKYRT

>  <LABEL_VALUE>
n

$$$$
>  <SEQUENCE_CONTENT>
IMATVAAILLLVIIILIVMKYRT

>  <LABEL_VALUE>
y

$$$$
>  <SEQUENCE_CONTENT>
IMALVAAIMLLVIIILIVMKYRT

>  <LABEL_VALUE>
y

$$$$
>  <SEQUENCE_CONTENT>
IMALVAAILLLVIIILIVMKART

>  <LABEL_VALUE>
y

$$$$
>  <SEQUENCE_CONTENT>
IMALVAAILLLVIIILIVKKYRT

>  <LABEL_VALUE>
n

$$$$

Please look at the following variant next.
Please tell me: is the variant IMALVAIILLLVIIILIVMKYRT at or over 3 in terms of protein stability index?
y
